As an illustration, consider measured pIC50 for compounds on rat kidney medullary V2 receptors (Rattus norvegicus, UniProt Q00788).
Sequence (Q00788 whole entry): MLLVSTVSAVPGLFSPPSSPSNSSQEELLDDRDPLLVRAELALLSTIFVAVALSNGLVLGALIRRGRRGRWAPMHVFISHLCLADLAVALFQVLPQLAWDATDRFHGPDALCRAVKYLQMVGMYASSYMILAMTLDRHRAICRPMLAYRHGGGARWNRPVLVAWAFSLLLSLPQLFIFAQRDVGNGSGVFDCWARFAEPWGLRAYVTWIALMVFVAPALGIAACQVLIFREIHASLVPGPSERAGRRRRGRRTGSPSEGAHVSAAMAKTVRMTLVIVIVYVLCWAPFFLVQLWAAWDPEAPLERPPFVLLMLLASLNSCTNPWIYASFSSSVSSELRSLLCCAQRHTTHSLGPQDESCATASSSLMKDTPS
pIC50: −log10 of the molar value.

{"columns": ["Molecule Smiles", "pIC50"],
 "data": [
  ["O=C(Nc1ccc(C(=O)N2Cc3ccccc3Cc3ccccc32)cc1)c1ccccc1Cl", 7.18],
  ["Cc1ncc2c(n1)-c1ccccc1N(C(=O)c1ccc(NC(=O)c3ccccc3C)cc1)CC2", 5.96],
  ["O=C(Nc1ccc(C(=O)N2CCc3c[nH]nc3-c3ccccc32)cc1)c1ccc(Cl)cc1Cl", 7.40],
  ["CSc1ccccc1C(=O)Nc1ccc(C(=O)N2Cc3ccccc3Cc3ccccc32)cc1", 7.17],
  ["O=C(Nc1ccc(C(=O)N2Cc3ccccc3Sc3ccccc32)cc1)c1ccc(Cl)cc1Cl", 6.60],
  ["Cc1ccc(C(=O)Nc2ccc(C(=O)N3Cc4ccccc4Cc4ccccc43)cc2)c(C)c1", 6.52],
  ["Cc1ccccc1C(=O)Nc1ccc(C(=O)N2Cc3ccccc3-c3ccccc32)cc1", 7.54],
  ["O=C(Cc1ccccc1Cl)Nc1ccc(C(=O)N2Cc3ccccc3Cc3ccccc32)cc1", 7.19],
  ["O=C(Nc1ccc(C(=O)N2Cc3ccccc3Cc3ccccc32)cc1)c1ccc(F)cc1F", 6.36],
  ["O=C(Nc1ccc(C(=O)N2Cc3ccccc3Cc3ccccc32)c(Cl)c1)c1ccc(Cl)cc1Cl", 7.27],
  ["Cc1cccc(C(=O)Nc2ccc(C(=O)N3Cc4ccccc4Cc4ccccc43)cc2)c1C", 7.48],
  ["Cc1ccccc1C(=O)Nc1ccc(C(=O)N2Cc3ccccc3Cc3ccccc32)cc1", 7.17],
  ["O=C(Nc1ccc(C(=O)N2Cc3ccccc3Cc3ccccc32)cc1)c1ccccc1OC(F)(F)F", 6.25],
  ["Cc1c(F)cccc1C(=O)Nc1ccc(C(=O)N2CCc3c[nH]nc3-c3ccccc32)c(Cl)c1", 8.28],
  ["Cc1ccccc1NC(=O)c1ccc(C(=O)N2Cc3ccccc3Cc3ccccc32)cc1", 6.72],
  ["Cc1cccc(NC(=O)c2ccc(C(=O)N3Cc4ccccc4Cc4ccccc43)cc2)c1C", 6.68],
  ["Cc1ccccc1C(=O)Nc1ccc(C(=O)N2Cc3ccccc3Sc3ccccc32)cc1", 6.07]
]}

====

Known Average Change of a selection of compounds
System: vasopressin V1
Experiment Notes: Vasopressin V1 Antagonist Activity in Conscious Rats (vasopressin vasopressor response)
Format: in vivo, rat (spontaneously hypertensive rats)
Set-up: unit not given here
Condition Info: 20 mg/kg i.v.; VAS 0.02 i.u./kg; 120 min
Assay Endpoint: Average Change

{"columns": ["Compound", "Assay Endpoint", "Value"],
 "data": [
  ["Cc1ccccc1NC(=O)c1ccc(C(=O)N2Cc3ccccc3Cc3ccccc32)cc1 [Example 123]", "Average Change", 4.5],
  ["Cc1ccccc1C(=O)Nc1ccc(C(=O)N2Cc3ccccc3Sc3ccccc32)cc1 [Example 62]", "Average Change", 50],
  ["Cc1cccc(NC(=O)c2ccc(C(=O)N3Cc4ccccc4Cc4ccccc43)cc2)c1C [Example 124]", "Average Change", 9.5],
  ["O=C(Nc1ccc(C(=O)N2Cc3ccccc3Cc3ccccc32)cc1)c1ccc(Cl)cc1Cl [Example 10]", "Average Change", 22],
  ["CSc1ccccc1C(=O)Nc1ccc(C(=O)N2Cc3ccccc3Cc3ccccc32)cc1 [Example 61]", "Average Change", 20]
]}

====

System: vasopressin V2
Experiment Notes: Vasopressin V2 Antagonist Activity in Conscious Hydrated Rats (diuretic effect)
Type: in vivo, normal Sprague-Dawley rats
Condition Info: 10 mg/kg orally, AVP 0.4 μg/kg i.p.
Known Urine Volume of a selection of molecules
Assay Endpoint: Urine Volume (ml/4 hrs.)

{"columns": ["Molecule", "Value"],
 "data": [
  ["Cc1cc(C(=O)N2Cc3ccccc3Cc3ccccc32)cc(C)c1NC(=O)c1ccc(Cl)cc1Cl [Example 259]", 6],
  ["Cc1nc2c(s1)CCN(C(=O)c1ccc(NC(=O)c3ccc(Cl)cc3Cl)cc1)c1ccccc1-2 [Example 455]", 13.5],
  ["O=C(Nc1ccc(C(=O)N2Cc3ccccc3Cc3ccccc32)cc1)c1cc(Cl)cc(Cl)c1 [Example 251]", 7.5],
  ["Cc1ccccc1C(=O)Nc1ccc(C(=O)N2Cc3ccccc3Cc3ccccc32)c(Cl)c1 [Example 260]", 13.8],
  ["CCOC(=O)Cn1cc2c(n1)-c1ccccc1N(C(=O)c1ccc(NC(=O)c3ccc(Cl)cc3Cl)cc1)CC2 [Example 452]", 7.8],
  ["Cc1nc2c(s1)CCN(C(=O)c1ccc(NC(=O)c3cc(F)ccc3C)cc1)c1ccccc1-2 [Example 534]", 10.6],
  ["COc1cc(C(=O)N2Cc3ccccc3Cc3ccccc32)ccc1NC(=O)c1ccccc1C [Example 257]", 11.8],
  ["Cc1c(F)cccc1C(=O)Nc1ccc(C(=O)N2Cc3ccccc3Cc3ccccc32)c(Cl)c1 [Example 264]", 12]
]}

====

System: vasopressin V1
Experiment Notes: Vasopressin V1 Antagonist Activity in Conscious Rats (vasopressin vasopressor response)
Type: in vivo, rat (spontaneously hypertensive rats)
Parameters: unit not given here
Condition Info: 20 mg/kg i.v.; VAS 0.01 i.u./kg; 120 min
Binary classification by Average Change, with 10 as an inclusive lower bound for 1 (yes); all other cases are 0 (no).

{"columns": ["Compound", "Assigned Class"],
 "data": [
  ["Cc1cccc(NC(=O)c2ccc(C(=O)N3Cc4ccccc4Cc4ccccc43)cc2)c1C [Example 124]", "1 (yes)"],
  ["Cc1ccccc1C(=O)Nc1ccc(C(=O)N2Cc3ccccc3Sc3ccccc32)cc1 [Example 62]", "1 (yes)"],
  ["O=C(Nc1ccc(C(=O)N2Cc3ccccc3Cc3ccccc32)cc1)c1ccc(Cl)cc1Cl [Example 10]", "1 (yes)"],
  ["Cc1ccccc1NC(=O)c1ccc(C(=O)N2Cc3ccccc3Cc3ccccc32)cc1 [Example 123]", "0 (no)"],
  ["CSc1ccccc1C(=O)Nc1ccc(C(=O)N2Cc3ccccc3Cc3ccccc32)cc1 [Example 61]", "1 (yes)"]
]}

====

Test system: vasopressin V1
Experiment Notes: Vasopressin V1 Antagonist Activity in Conscious Rats (vasopressin vasopressor response)
Type: in vivo, rat (spontaneously hypertensive rats)
Set-up: unit not given here
Condition Info: 20 mg/kg i.v.; VAS 0.02 i.u./kg; 60 min
Mark true (1) only when Average Change stays strictly below 20. Values equal to the cut-off are false (0).

{"columns": ["Molecule", "Assigned Class"],
 "data": [
  ["CSc1ccccc1C(=O)Nc1ccc(C(=O)N2Cc3ccccc3Cc3ccccc32)cc1 [Example 61]", "true (1)"],
  ["Cc1ccccc1C(=O)Nc1ccc(C(=O)N2Cc3ccccc3Sc3ccccc32)cc1 [Example 62]", "false (0)"],
  ["Cc1cccc(NC(=O)c2ccc(C(=O)N3Cc4ccccc4Cc4ccccc43)cc2)c1C [Example 124]", "true (1)"],
  ["O=C(Nc1ccc(C(=O)N2Cc3ccccc3Cc3ccccc32)cc1)c1ccc(Cl)cc1Cl [Example 10]", "false (0)"],
  ["Cc1ccccc1NC(=O)c1ccc(C(=O)N2Cc3ccccc3Cc3ccccc32)cc1 [Example 123]", "true (1)"]
]}

====

Known Urine Volume of a selection of compounds
Test system: vasopressin V2
Experiment Notes: Vasopressin V2 Antagonist Activity in Conscious Hydrated Rats (diuretic effect)
Type: in vivo, normal Sprague-Dawley rats
Condition Info: 10 mg/kg orally, AVP 0.4 μg/kg i.p.
Method: Conscious hydrated rats are treated with compounds under study from 0.1 to 100 mg/kg orally or vehicle. Two to four rats are used for each compound. […] Urine volume is measured and osmolality analyzed by use of a Fiske One-Ten osmometer (Fiske Assoc., Norwood, Mass., USA). Urinary sodium, potassium, and chloride are analyzed by use of ion-specific electrodes in a Beckman E3 (Electrolyte 3) Analyzer. […]

{"columns": ["Compound", "Urine Volume"],
 "data": [
  ["O=C(Nc1ccc(C(=O)N2Cc3ccccc3Cc3ccccc32)cc1)c1cccc(Cl)c1Cl [Example 253]", "6 ml/4 hrs."],
  ["Cc1ccccc1C(=O)Nc1ccc(C(=O)N2Cc3ccccc3-c3ccccc32)cc1 [Example 5]", "2 ml/4 hrs."],
  ["Cc1ccccc1NC(=O)c1ccc(C(=O)N2Cc3ccccc3Cc3ccccc32)cc1 [Example 123]", "5.8 ml/4 hrs."],
  ["Cc1ccccc1C(=O)Nc1ccc(C(=O)N2Cc3ccsc3Cc3ccccc32)cc1 [Example 456]", "4.8 ml/4 hrs."]
]}

====

Known pIC50 of a selection of compounds
Assay Target: vasopressin V1 receptor subtype in human platelet membranes (Homo sapiens, UniProt P37288)
Construct: tissue Hudson Valley Blood Services
Sequence (P37288 whole entry): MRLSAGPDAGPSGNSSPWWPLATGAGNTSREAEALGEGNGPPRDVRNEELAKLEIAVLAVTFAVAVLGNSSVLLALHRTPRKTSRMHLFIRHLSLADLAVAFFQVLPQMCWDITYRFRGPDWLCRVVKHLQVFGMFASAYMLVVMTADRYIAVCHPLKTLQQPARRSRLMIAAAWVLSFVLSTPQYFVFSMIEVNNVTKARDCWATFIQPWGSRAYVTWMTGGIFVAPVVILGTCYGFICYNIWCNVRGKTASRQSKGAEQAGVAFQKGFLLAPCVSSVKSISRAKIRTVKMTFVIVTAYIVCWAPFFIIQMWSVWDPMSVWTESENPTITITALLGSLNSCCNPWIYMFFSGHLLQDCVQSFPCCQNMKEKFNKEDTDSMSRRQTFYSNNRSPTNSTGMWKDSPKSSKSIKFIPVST
Experiment Notes: Binding to Vasopressin V1 Receptor Subtype in Human Platelet Membranes
Condition Info: human platelet V1 (*)
pIC50: −log10 of the molar value.
Assay Endpoint: pIC50

{"columns": ["Molecule Smiles", "Assay Endpoint", "Value"],
 "data": [
  ["Cc1ccc(F)cc1C(=O)Nc1ccc(C(=O)N2CCc3c[nH]nc3-c3ccccc32)c(Cl)c1", "pIC50", 6.82],
  ["COc1cc(C(=O)N2Cc3ccccc3Cc3ccccc32)ccc1NC(=O)c1cc(F)ccc1C", "pIC50", 7.68],
  ["Cc1ccccc1C(=O)Nc1ccc(C(=O)N2CCc3c[nH]nc3-c3ccccc32)cc1", "pIC50", 7.92],
  ["Cc1nc2c(s1)CCN(C(=O)c1ccc(NC(=O)c3cc(F)ccc3C)cc1)c1ccccc1-2", "pIC50", 7.05],
  ["CCOC(=O)Cn1cc2c(n1)-c1ccccc1N(C(=O)c1ccc(NC(=O)c3ccc(Cl)cc3Cl)cc1)CC2", "pIC50", 6.33]
]}
